measurementTarget: T1, human E-selectin extracellular domain with 10 His purification tail (human, UniProt P16581 22-556)
T1 construct: also called soluable human E-selectin extracellular domain; rhE-Selectin
T1 sequence: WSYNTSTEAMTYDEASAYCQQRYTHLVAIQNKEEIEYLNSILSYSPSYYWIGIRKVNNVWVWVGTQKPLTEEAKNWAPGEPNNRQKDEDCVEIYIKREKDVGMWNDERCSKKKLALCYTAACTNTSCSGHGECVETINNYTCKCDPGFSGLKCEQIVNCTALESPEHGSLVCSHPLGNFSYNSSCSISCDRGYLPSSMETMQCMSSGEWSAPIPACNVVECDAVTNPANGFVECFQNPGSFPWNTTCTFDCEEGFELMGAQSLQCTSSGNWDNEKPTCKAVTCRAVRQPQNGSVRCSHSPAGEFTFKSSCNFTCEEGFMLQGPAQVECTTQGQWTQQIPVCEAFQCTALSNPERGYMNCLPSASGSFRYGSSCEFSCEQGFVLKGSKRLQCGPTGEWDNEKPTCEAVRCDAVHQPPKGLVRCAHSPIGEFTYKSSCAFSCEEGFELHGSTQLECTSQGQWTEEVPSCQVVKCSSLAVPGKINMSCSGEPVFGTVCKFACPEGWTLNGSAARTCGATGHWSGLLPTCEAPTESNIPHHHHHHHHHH
experimentalDetails: SPR, antibody captured, E-selectin analyte
# koff per record follows

| binder | measurementUnits | koff |
| --- | --- | --- |
| anti-E-selectin antibody 0180 chimera (antibody, human IgG1, kappa, V domains shown, rat VH/VL on effector-null human IgG1 and human kappa) VH: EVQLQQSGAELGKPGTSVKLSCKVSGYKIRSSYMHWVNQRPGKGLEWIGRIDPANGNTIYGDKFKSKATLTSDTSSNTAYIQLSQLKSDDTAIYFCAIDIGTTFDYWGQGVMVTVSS VL: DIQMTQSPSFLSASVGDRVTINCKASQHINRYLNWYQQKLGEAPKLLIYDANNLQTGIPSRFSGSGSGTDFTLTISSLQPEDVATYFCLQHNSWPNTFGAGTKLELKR | s⁻¹ | 0.666 |
| anti-E-selectin antibody 0164 chimera (antibody, human IgG1, kappa, V domains shown, rat VH/VL on effector-null human IgG1 and human kappa) VH: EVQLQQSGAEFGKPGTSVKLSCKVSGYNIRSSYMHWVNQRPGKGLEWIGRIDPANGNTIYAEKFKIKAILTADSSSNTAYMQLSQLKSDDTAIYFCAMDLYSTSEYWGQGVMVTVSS VL: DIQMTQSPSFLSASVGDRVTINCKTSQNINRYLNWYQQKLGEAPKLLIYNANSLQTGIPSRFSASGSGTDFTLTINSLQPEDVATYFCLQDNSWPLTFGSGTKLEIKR | s⁻¹ | 0.0113 |
| anti-E-selectin antibody 0039 chimera (antibody, human IgG1, kappa, V domains shown, rat VH/VL on effector-null human IgG1 and human kappa) VH: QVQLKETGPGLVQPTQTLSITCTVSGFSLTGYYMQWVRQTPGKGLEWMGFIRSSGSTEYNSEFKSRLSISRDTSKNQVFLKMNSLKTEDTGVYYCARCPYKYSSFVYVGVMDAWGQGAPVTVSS VL: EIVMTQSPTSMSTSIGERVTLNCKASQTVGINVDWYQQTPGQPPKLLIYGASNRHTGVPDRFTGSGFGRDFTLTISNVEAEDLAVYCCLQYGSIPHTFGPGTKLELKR | s⁻¹ | 0.00421 |

All values here come from patent US20240076386A1.
